# System: EKVX NSCLC
# experiment: NCI tumour cell line growth inhibition, 48 h
recorded.endpoint: TGI

> print(dat)
                                smiles.data  assay.target  recorded.endpoint  value.observed
1  COc1ccc2c(c1)C(=O)c1c-2n(CCCN=[N+]=[N-])c(=O)c2cc(N(C)C)ccc12    EKVX NSCLC                TGI        > 100 µM
2  CN1CCN(c2c(Cl)cc(Cl)c3[nH]c4ccccc4c(=O)c23)CC1    EKVX NSCLC                TGI         32.6 µM
3            Nc1cccc2c1C(=O)c1cccc(N)c1C2=O    EKVX NSCLC                TGI        > 100 µM
4  O=c1[nH]c(=O)n([C@@H]2C[C@H](CO)[C@H](O)C2)cc1/C=C/Br    EKVX NSCLC                TGI        > 100 µM
5  Cc1ccncc1.F[B-](F)(F)F.[Pt+2].c1ccc(-c2cccc(-c3ccccn3)n2)nc1    EKVX NSCLC                TGI       > 73.5 µM
